The reported measurements were obtained from ChEMBL document CHEMBL3232721.

- assay target: Beta-secretase 1 (Homo sapiens, UniProt P56817)
- Sequence (P56817 whole entry): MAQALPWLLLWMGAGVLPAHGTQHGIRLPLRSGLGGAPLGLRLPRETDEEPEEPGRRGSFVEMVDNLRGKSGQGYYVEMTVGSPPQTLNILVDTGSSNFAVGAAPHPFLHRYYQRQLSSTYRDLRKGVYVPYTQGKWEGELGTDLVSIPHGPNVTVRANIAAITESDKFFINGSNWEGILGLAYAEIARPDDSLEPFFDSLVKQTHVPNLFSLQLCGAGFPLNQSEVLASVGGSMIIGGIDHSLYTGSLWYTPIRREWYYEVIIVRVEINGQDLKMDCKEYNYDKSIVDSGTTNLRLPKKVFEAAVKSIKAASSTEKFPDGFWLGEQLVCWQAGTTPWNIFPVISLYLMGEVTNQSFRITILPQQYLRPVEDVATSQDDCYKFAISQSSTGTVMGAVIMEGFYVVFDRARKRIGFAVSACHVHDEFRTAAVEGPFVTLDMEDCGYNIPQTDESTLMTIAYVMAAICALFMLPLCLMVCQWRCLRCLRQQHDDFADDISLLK
- assay: Inhibition of BACE-1 (unknown origin) at 10 uM by FRET assay relative to control
Respond with yes for inhibition values of 40% and above, no for values below.

State whether the measured inhibition reaches 40%, counting equality as reaching it, for O=C(NCc1ccc2c(c1)OCO2)c1c[nH]c2ccccc2c1=O no

How about Cc1ccccc1-c1ccc2[nH]cc(C(=O)NC3CCCCC3)c(=O)c2c1 ? yes

Further, for O=C(NC1CCCCC1)c1c[nH]c2ccc(S(=O)(=O)Nc3cccc(C(F)(F)F)c3)cc2c1=O ? yes

Please do the same for O=C(NCc1cccc(F)c1)c1c[nH]c2ccc(S(=O)(=O)Nc3cccc(C(F)(F)F)c3)cc2c1=O as well. yes

Same lookup for Cc1ccccc1-c1ccc2[nH]cc(C(=O)NCc3ccco3)c(=O)c2c1 , please. no

Another compound to check: O=C(NCc1ccco1)c1c[nH]c2ccc(S(=O)(=O)Nc3cccc(C(F)(F)F)c3)cc2c1=O yes

Another compound: Cc1ccccc1-c1ccc2[nH]cc(C(=O)NCc3cccc(Br)c3)c(=O)c2c1 yes

Do the same for Cc1ccccc1-c1ccc2[nH]cc(C(=O)NCc3ccc(C(F)(F)F)cc3)c(=O)c2c1 please no

Please do the same for COc1ccc(CNC(=O)c2c[nH]c3ccc(S(=O)(=O)Nc4cccc(C(F)(F)F)c4)cc3c2=O)cc1 as well. yes

How about this compound: O=C(NCc1ccc(F)cc1)c1c[nH]c2ccc(S(=O)(=O)Nc3cccc(C(F)(F)F)c3)cc2c1=O no

Next:
Record O=C(NCc1cccnc1)c1c[nH]c2ccc(S(=O)(=O)Nc3cccc(C(F)(F)F)c3)cc2c1=O ; criterion: inhibition no lower than 40%. Met? no

// next record COc1cccc(CNC(=O)c2c[nH]c3ccc(S(=O)(=O)Nc4cccc(C(F)(F)F)c4)cc3c2=O)c1 yes

---

Overview of recorded inhibition for various molecules
- assay target: Beta-secretase 1 (Homo sapiens, UniProt P56817)
- assay: Inhibition of BACE-1 (unknown origin) at 10 uM by FRET assay relative to control
Give the value, in units of %, as a plain number.

Endpoint output: inhibition of Cc1ccccc1-c1ccc2[nH]cc(C(=O)NCc3cccnc3)c(=O)c2c1 . Value? 10.2

What would you report for Cc1ccccc1-c1ccc2[nH]cc(C(=O)NCc3cccc(F)c3)c(=O)c2c1 ? 12.3

Consider the record given below.
Can you share its inhibition? I mean this molecule: Cc1ccccc1-c1ccc2[nH]cc(C(=O)NCc3cccc(C(F)(F)F)c3)c(=O)c2c1 67.4
